Every entry's value here was drawn from ChEMBL document CHEMBL6087402.

# Test system: A549
# assayName: Anti-proliferative activity against human A549 cells incubated for 72 hrs by MTT assay
# Assay type: functional, cell-based
# conditionDetails: A549, 72 h
metricName: pIC50
Please report pIC50 as the negative decimal logarithm of the molar concentration, giving only the number.

INSERT INTO assay_data (molecule, value) VALUES
  ('COc1ccc(-n2cc(COC(=O)CCC(=O)OC3O[C@@H]4O[C@@]5(C)CC[C@@H]6[C@H](C)CC[C@@H]([C@H]3C)[C@@]46OO5)nn2)cc1 (some centres not stated)', 5.14);

Challenge: // pIC50 lookup, key: CCCCCNC(=O)OC1O[C@@H]2O[C@@]3(C)CC[C@@H]4[C@H](C)CC[C@@H]([C@H]1C)[C@@]24OO3 (some centres not stated)
Response given: 5.12

Challenge: Also need C[C@@H]1CC[C@H]2[C@@H](C)C(OC(=O)CCC(=O)OCc3cn(-c4ccccc4)nn3)O[C@@H]3O[C@@]4(C)CC[C@H]1[C@]32OO4 (some centres not stated) , thanks.
Response given: 5.19

Challenge: Also need C[C@@H]1CC[C@H]2[C@@H](C)C(OC(=O)Nc3ccc(Cl)cc3)O[C@@H]3O[C@@]4(C)CC[C@H]1[C@]32OO4 (some centres not stated) , thanks.
Response given: 6.00

Challenge: Also need C[C@@H]1CC[C@H]2[C@@H](C)C(OC(=O)c3ccc(Cn4cc(Br)cn4)cc3)O[C@@H]3O[C@@]4(C)CC[C@H]1[C@]32OO4 (some centres not stated) , thanks.
Response given: 5.31

Challenge: Also need C[C@@H]1CC[C@H]2[C@@H](C)C(OC(=O)CCc3nc(-c4ccc(Cl)cc4)no3)O[C@@H]3O[C@@]4(C)CC[C@H]1[C@]32OO4 (some centres not stated) , thanks.
Response given: 5.17

Challenge: Also need Cc1ccc(NC(=O)OC2O[C@@H]3O[C@@]4(C)CC[C@@H]5[C@H](C)CC[C@@H]([C@H]2C)[C@@]35OO4)cc1 (some centres not stated) , thanks.
Response given: 5.70
